- Tested on: Staphylococcus aureus
- test_details: MIC vs. aerobic bacteria, microplate broth-dilution (BHI)
- Type: cell-based
- test_parameters: Staphylococcus aureus, UC570, 20 h, S. aureus UC 570; read-out: MIC
MIC: recorded values
The response must be a number in µg/mL with no trailing unit.

CS[C@H]1O[C@H]([C@H](NC(=O)C2CCCCN2C)[C@H](C)Cl)[C@H](O)[C@H](O)[C@H]1O (stereo partly shown) [U-46,699]	7.8

Turning now to a further record.
(Q) Item under review: CS[C@H]1O[C@H]([C@H](NC(=O)C2CCCCN2)[C@@H](C)O)[C@H](O)[C@H](O)[C@H]1O (stereo partly shown) [U-60,493] . Reported MIC?
(A) 1000

###

- test_details: Acute I.P. toxicity in the mouse (LD50)
- Format: in vivo
- test_parameters: in vivo, ip, mean of two determinations
property_measured: LD50 (mg/kg)
Provide only the numeric value, understood in mg/kg.

(Q) Any idea what LD50 was measured for CC[C@@H]1CCN[C@H](C(=O)N[C@@H]([C@H]2O[C@H](SC)[C@H](O)[C@@H](O)[C@H]2O)[C@H](C)Cl)C1 [U-57,930E] ?
(A) 592

###

- Tested on: Staphylococcus aureus
- test_details: MIC vs. aerobic bacteria, microplate broth-dilution (BHI)
- Assay type: cell-based
- test_parameters: Staphylococcus aureus, UC746, 20 h, S. aureus UC 746; read-out: MIC
property_measured: MIC (µg/mL)
# value in µg/mL; strip the unit string

Solved entries (count: 2):
CS[C@H]1O[C@H]([C@H](NC(=O)C2CCCCN2C)[C@H](C)Cl)[C@H](O)[C@H](O)[C@H]1O (stereo partly shown)	7.8
CCc1ccnc(C(=O)N[C@@H]([C@H]2O[C@H](SC)[C@H](O)[C@@H](O)[C@H]2O)[C@H](C)O)c1	1000

(Q) Value lookup for MIC; key = CCc1ccc(C(=O)N[C@@H]([C@H]2O[C@H](SC)[C@H](O)[C@@H](O)[C@H]2O)[C@H](C)Cl)nc1
(A) 62.5

###

- Tested on: Staphylococcus aureus
- test_details: MIC vs. aerobic bacteria, microplate broth-dilution (BHI)
- Type: cell-based
- test_parameters: Staphylococcus aureus, UC570, 20 h, S. aureus UC 570; read-out: MIC
property_measured: MIC (µg/mL)
Kindly provide the numeric value in µg/mL only, without the unit symbol.

CS[C@H]1O[C@H]([C@H](NC(=O)C2CCCCN2CCO)[C@H](C)Cl)[C@H](O)[C@H](O)[C@H]1O (stereo partly shown)	250
CS[C@H]1O[C@H]([C@H](NC(=O)c2cccnc2Cl)[C@H](C)Cl)[C@H](O)[C@H](O)[C@H]1O	250

(Q) Please look up its MIC: CCc1ccc(C(=O)N[C@@H]([C@H]2O[C@H](SC)[C@H](O)[C@@H](O)[C@H]2O)[C@H](C)Cl)nc1
(A) 62.5

###

- Test system: Streptococcus faecalis
- test_details: MIC vs. aerobic bacteria, microplate broth-dilution (BHI)
- Format: cell-based
- test_parameters: Enterococcus faecalis, UC694, 20 h, St. faecalis UC 694; read-out: MIC
List of MIC values.

(Q) Can you share its MIC? I mean this molecule: CS[C@H]1O[C@H]([C@H](NC(=O)c2cccnc2Cl)[C@H](C)Cl)[C@H](O)[C@H](O)[C@H]1O
(A) > 1000 µg/mL
